Target: T1, recombinant canine β NGF (canine, UniProt Q29074 110-229 (pig entry))
T1 construct: also called canine NGF
T1 chain: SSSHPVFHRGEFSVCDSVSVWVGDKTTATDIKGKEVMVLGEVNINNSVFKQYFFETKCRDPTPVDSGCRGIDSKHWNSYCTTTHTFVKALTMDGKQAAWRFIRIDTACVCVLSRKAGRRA
Experiment: direct ELISA, canine NGF coated at 1 µg/ml, mAb at 2 µg/ml
quantity kind: absorbance at 450 nm (A450)
Express it in A450; write the number only.

Use the examples below as a reference point.
>  <binder>
PR-1254977 (antibody, mouse IgG1, V domains shown, also called 21D4; ML129-21D4.4A11) VH: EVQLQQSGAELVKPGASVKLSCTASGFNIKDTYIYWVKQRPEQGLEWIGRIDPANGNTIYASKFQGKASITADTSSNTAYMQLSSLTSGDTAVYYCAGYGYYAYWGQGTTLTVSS VL: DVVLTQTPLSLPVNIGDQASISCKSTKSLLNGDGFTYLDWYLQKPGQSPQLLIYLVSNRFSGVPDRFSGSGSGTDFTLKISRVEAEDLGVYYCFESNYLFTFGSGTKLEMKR

>  <unit spec>
A450

>  <reported result>
0.414

$$$$
>  <binder>
PR-1254982 (antibody, mouse IgG1, V domains shown, also called 3F7; ML130-3F7.4A8) VH: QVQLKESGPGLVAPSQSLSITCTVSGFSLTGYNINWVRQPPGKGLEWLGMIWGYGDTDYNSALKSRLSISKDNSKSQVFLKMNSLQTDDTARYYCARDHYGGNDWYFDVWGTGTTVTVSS VL: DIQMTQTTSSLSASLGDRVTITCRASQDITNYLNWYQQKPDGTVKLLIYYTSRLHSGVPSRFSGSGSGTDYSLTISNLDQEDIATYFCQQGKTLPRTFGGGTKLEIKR

>  <unit spec>
A450

>  <reported result>
0.142

$$$$
>  <binder>
PR-1254973 (antibody, mouse IgG2b, V domains shown, also called 2B12; ML129-2B12.5G9) VH: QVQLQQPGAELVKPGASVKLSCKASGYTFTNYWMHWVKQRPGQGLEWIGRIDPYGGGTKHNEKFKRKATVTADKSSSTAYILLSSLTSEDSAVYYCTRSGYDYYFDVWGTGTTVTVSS VL: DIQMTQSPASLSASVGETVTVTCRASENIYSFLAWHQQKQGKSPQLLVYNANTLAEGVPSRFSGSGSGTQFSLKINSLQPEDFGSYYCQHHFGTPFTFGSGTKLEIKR

>  <unit spec>
A450

>  <reported result>
0.836

$$$$
>  <binder>
PR-1254981 (antibody, mouse IgG1, V domains shown, also called 14A9; ML130-14A9.5B12) VH: EVQLVESGGGAVKPGGSLTLSCAASGFTFSNHYMYWVRQTPEKRLEWVASISDGGAYTFYPDTVKGRFTISRDNVNNNLYLQMRHLKSEDTAMYYCTREESANNGFAFWGQGTLVTVSA VL: DVLMTQTPLSLPVSLGDQASISCRSSQSILHSNGNTYLEWYLQKPGQSPNLLIYRVSNRFSGVPDRFSGSGSGTDFTLKISRVEAEDLGVYYCFQGAHVPFTFGSGTKLEIKR

>  <unit spec>
A450

>  <reported result>
0.458

$$$$
>  <binder>
PR-1254972 (antibody, mouse IgG2b, V domains shown, also called 20B10; ML129-20B10.3F4) VH: EVHLVESGGGLVKPGGFLILSCAASGFTFSDYYMFWIRQTPGKRLEWVATISDGGSYTYYTDNVKGRFTISRDNVKNNLYLQMSHLKSADTAMYYCARDWSDSEGFAYWGQGTLVTVSA VL: DVLMTQTPLSLPVSLGDQASISCRSSQSIVQSNGNTYLEWYLQKPGQSPKLLIYKVSNRFSGVPDRFSGSGSGTDFTLKISRVEAEDLGVYYCFQGSHVPFTFGSGTKLEIKR

>  <unit spec>
A450

>  <reported result>
0.091

$$$$

Turning to the following binder.
Reported absorbance at 450 nm of PR-1254980 (antibody, mouse IgG1, V domains shown, also called 23F1; ML129-23F1.4G3) VH: EVQLQQSGAELVKPGASVKLSCTASGFNIKDTYIYWVKQRPEQGLEWIGRIDPANGNTIYASKFQGKATITADTSSNTAYMQLSSLTSGDTAVYYCAGYGYYAYWGQGTTLTVSS VL: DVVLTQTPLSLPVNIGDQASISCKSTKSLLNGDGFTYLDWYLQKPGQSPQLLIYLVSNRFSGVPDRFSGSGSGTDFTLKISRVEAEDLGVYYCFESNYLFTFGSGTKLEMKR : 0.334
